Cited source: patent EP4696329A1

molecular target: human ROR2 protein (hROR2, Kactus Biosystems, Cat. No. ROR-HM402) (human, UniProt Q01974 34-403, limits assumed); assay: ELISA, plate coated with hROR2
Sequence (Q01974 34-403 limits assumed): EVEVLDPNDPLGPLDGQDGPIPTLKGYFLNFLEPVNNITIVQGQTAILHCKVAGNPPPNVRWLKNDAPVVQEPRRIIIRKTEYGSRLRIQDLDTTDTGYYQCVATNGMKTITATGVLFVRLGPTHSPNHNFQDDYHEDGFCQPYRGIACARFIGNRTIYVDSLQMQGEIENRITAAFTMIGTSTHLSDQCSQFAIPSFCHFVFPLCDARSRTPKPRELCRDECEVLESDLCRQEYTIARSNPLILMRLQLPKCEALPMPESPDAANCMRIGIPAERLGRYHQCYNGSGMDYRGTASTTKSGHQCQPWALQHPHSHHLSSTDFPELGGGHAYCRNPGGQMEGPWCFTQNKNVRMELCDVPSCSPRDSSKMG
Endpoint Label: binding result

Reported binding result for YR-11 (antibody, human IgG1, kappa, V domains shown) VH: QVQLQESGPGLVKPSETLSLTCTVSGFSLTRYGVHWIRQPPGKGLEWIGVIWAGGFTNYNSALKSRVTISKDNSKNQVSLKLSSVTAADTAVYYCARRGNEYSMSYWGQGTLVTVSS VL: EIVLTQSPATLSLSPGERATLSCSASSQVSYIHWYQQKPGQAPRPWIYETSKLASGIPARFSGSGSGTDYTLTISSLEPEDFAVYYCQQWNYPLITFGQGTKLEIKR was binds

Reported binding result for YR-10 (antibody, human IgG1, kappa, V domains shown) VH: QVQLQESGPGLVKPSETLSLTCTVSGFSLTRYGVHWIRQPPGKGLEWIGVIWAGGFTNYNSTLKSRVTISKDNSKNQVSLKLSSVTAADTAVYYCARRGNQYSMKYWGQGTLVTVSS VL: EIVLTQSPATLSLSPGERATLSCSASSQVSYIHWYQQKPGQAPRPWIYETSKLASGIPARFSGSGSGTDYTLTISSLEPEDFAVYYCQQWNYPLISFGQGTKLEIKR was binds

Reported binding result for YR-21 (antibody, human IgG1, kappa, V domains shown) VH: QVQLQESGPGLVKPSETLSLTCTVSGFSLTRYGVHWIRQPPGKGLEWLGVIWAGGFTNYNSGLKSRLTISKDNSKNQVSLKLSSVTAADTAVYYCARRGDQYSMGYWGQGTLVTVSS VL: EIVLTQSPATLSLSPGERATLSCSASSQVSYIHWYQQKPGQAPRPWIYETSKLASGIPARFSGSGSGTDYTLTISSLEPEDFAVYYCQQWNYPLITFGQGTKLEIKR was binds
